experiment: Plasma pharmacokinetics of 17-DMAG by HPLC-MS, non-compartmental analysis; type: in vivo, human; conditions: human, intravenous, 80 mg/m2
endpoint: Vd (L)

# cpdSmiles, endpoint, unitsOfMeasure, testResult
measured = [
    ("CO[C@H]1/C=C\\C=C(/C)C(=O)NC2=CC(=O)C(NCCN(C)C)=C(C[C@@H](C)C[C@H](OC)[C@H](O)[C@@H](C)/C=C(\\C)[C@@H]1OC(N)=O)C2=O", "Vd", "L", 385),
]

---

assay: Plasma pharmacokinetics of 17-DMAG by HPLC-MS, non-compartmental analysis; assay type: in vivo, human; conditions: human, iv, 5 mg/m^2

# compound, unitsOfMeasure, AUC
records = [
    ("CO[C@H]1/C=C\\C=C(/C)C(=O)NC2=CC(=O)C(NCCN(C)C)=C(C[C@@H](C)C[C@H](OC)[C@H](O)[C@@H](C)/C=C(\\C)[C@@H]1OC(N)=O)C2=O [17-DMAG]", "µM·h", 0.864),
]

---

test: Plasma pharmacokinetics of 17-DMAG by HPLC-MS, non-compartmental analysis; type: in vivo, human; details: human, iv, 106 mg/m^2

# cpdSmiles, unitsOfMeasure, Cmax
data = [
    ("CO[C@H]1/C=C\\C=C(/C)C(=O)NC2=CC(=O)C(NCCN(C)C)=C(C[C@@H](C)C[C@H](OC)[C@H](O)[C@@H](C)/C=C(\\C)[C@@H]1OC(N)=O)C2=O", "µM", 3.75),
]

---

assay: Plasma pharmacokinetics of 17-DMAG by HPLC-MS, non-compartmental analysis; type: in vivo, human; details: human, iv, 106 mg/m^2

# cpdSmiles, clearance
data = [
    ("CO[C@H]1/C=C\\C=C(/C)C(=O)NC2=CC(=O)C(NCCN(C)C)=C(C[C@@H](C)C[C@H](OC)[C@H](O)[C@@H](C)/C=C(\\C)[C@@H]1OC(N)=O)C2=O", "213 mL/min"),
]

---

assay: Plasma pharmacokinetics of 17-DMAG by HPLC-MS, non-compartmental analysis; assay type: in vivo, human; details: human, iv, 40 mg/m^2

# cpdSmiles, Cmax
rows = [
    ("CO[C@H]1/C=C\\C=C(/C)C(=O)NC2=CC(=O)C(NCCN(C)C)=C(C[C@@H](C)C[C@H](OC)[C@H](O)[C@@H](C)/C=C(\\C)[C@@H]1OC(N)=O)C2=O", "957 nM"),
]

---

assay: Plasma pharmacokinetics of 17-DMAG by HPLC-MS, non-compartmental analysis; type: in vivo, human; conditions: human, intravenous, 80 mg/m2

# cpdSmiles, unitsOfMeasure, Cmax
records = [
    ("CO[C@H]1/C=C\\C=C(/C)C(=O)NC2=CC(=O)C(NCCN(C)C)=C(C[C@@H](C)C[C@H](OC)[C@H](O)[C@@H](C)/C=C(\\C)[C@@H]1OC(N)=O)C2=O", "nM", 2680),
]

---

assay: Plasma pharmacokinetics of 17-DMAG by HPLC-MS, non-compartmental analysis; type: in vivo, human; conditions: human, iv, 80 mg/m^2

# cpdSmiles, unitsOfMeasure, clearance
rows = [
    ("CO[C@H]1/C=C\\C=C(/C)C(=O)NC2=CC(=O)C(NCCN(C)C)=C(C[C@@H](C)C[C@H](OC)[C@H](O)[C@@H](C)/C=C(\\C)[C@@H]1OC(N)=O)C2=O", "mL/min", 315),
]
